Provenance of the data: patent US8273762B2

Biological target: human SERT (HEK293 membranes) (Homo sapiens)
Sequence (P31645 whole entry): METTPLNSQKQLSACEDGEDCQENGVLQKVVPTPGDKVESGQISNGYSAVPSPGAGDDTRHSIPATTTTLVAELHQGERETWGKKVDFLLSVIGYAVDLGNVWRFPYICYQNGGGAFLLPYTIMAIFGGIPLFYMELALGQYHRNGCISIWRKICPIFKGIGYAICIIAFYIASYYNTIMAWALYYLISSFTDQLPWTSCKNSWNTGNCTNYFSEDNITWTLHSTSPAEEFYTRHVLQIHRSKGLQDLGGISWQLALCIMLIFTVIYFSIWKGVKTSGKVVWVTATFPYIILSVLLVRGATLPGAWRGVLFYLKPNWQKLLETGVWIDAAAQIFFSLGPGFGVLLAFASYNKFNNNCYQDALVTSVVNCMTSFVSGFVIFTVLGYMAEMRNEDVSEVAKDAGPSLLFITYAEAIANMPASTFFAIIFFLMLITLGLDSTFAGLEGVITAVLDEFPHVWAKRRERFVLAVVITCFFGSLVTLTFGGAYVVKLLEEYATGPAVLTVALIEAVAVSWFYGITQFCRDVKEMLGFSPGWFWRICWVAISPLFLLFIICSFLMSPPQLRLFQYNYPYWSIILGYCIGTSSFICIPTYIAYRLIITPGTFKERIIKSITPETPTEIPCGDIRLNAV
pKi: −log10 of the molar value.
Property measured: pKi

// solved cases for pKi follow
Molecule: Ic1ccc([C@@H]2CN3CCC[C@H]3c3cc(OCCCN4CCCCC4)ccc32)cc1 (relative stereo) [Example 35A]
Property measured: pKi
Reported: 8.15

Molecule: COc1ccc([C@H]2CN3CCC[C@H]3c3cc(OCCCN4CCOC[C@@H]4C)ccc32)cc1
Property measured: pKi
Reported: 8.05

Molecule: Clc1ccccc1[C@@H]1CN2CCC[C@H]2c2cc(OCCCN3CCCCC3)ccc21 (relative stereo) [Example 12A]
Property measured: pKi
Reported: 8.10

a = COc1ccc([C@@H]2CN3CCC[C@H]3c3cc(C#CCCN4CCCCC4)ccc32)cc1 (relative stereo) [Example 96A]
b = Cc1cccc([C@H]2CN3CCC[C@H]3c3cc(OCCCN4CCCCC4)ccc32)c1 (relative stereo)
c = CSc1ccc([C@@H]2CN3CCC[C@H]3c3ccc(C#CCCN4CCCCC4)cc32)cc1 (relative stereo) [Example 97A]
d = COc1ccc([C@H]2CN3CCC[C@H]3c3cc(OCCCN4CCC(F)CC4)ccc32)cc1 (relative stereo)
Sequence the entries by pKi, beginning with the highest number. # answer = labels listed in requested order d, a, b, c

###

Recorded pKi, one value per entry.
Target: Rat SERT (Rattus norvegicus)
Construct: A rat brain without cerebellum (Zivic Laboratories, Inc.—Pittsburgh, Pa.) was homogenized; tissue Zivic Laboratories, Inc; host or cells: rat brain without cerebellum, membranes
Sequence (P31652 whole entry): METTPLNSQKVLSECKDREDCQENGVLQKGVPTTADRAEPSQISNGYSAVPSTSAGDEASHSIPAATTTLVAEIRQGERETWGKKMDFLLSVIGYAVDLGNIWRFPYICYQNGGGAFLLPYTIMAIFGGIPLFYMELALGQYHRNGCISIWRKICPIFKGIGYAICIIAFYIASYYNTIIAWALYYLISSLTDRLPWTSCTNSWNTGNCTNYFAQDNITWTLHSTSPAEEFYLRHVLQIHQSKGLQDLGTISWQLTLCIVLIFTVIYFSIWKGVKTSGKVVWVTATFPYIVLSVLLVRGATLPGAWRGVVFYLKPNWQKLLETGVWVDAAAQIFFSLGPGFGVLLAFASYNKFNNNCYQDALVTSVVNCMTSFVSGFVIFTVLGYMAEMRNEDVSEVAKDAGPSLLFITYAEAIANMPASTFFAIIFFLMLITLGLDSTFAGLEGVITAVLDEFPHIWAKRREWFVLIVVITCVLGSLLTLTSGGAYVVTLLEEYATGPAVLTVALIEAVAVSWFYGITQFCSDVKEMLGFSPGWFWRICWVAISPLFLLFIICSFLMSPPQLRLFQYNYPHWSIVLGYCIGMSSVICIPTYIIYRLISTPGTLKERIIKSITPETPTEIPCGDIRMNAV
Assay: Rat brain SERT binding ([3H]-Citalopram displacement)
Details: rat brain membranes, 0.6 nM [3H]-Citalopram; read-out: Rat SERT Ki
Note: pKi values are expressed as the negative base-10 logarithm of concentration in M.

Compound: Oc1ccc([C@H]2CN3CCC[C@H]3c3cc(OCCCN4CCCCC4)ccc32)cc1 (relative stereo)
Reported: 8.05
//
Compound: Clc1cccc([C@@H]2CN3CCC[C@H]3c3cccc(OCCCN4CCCCC4)c32)c1 (relative stereo) [Example 11C]
Reported: 6.00
//
Compound: COc1cccc([C@@H]2CN3CCC[C@H]3c3cc(OCCCN4CCCCC4)ccc32)c1 (relative stereo) [Example 10B]
Reported: 7.43

Now consider the entry below.
So what's the measured pKi for this one? FC(F)(F)c1cccc([C@H]2CN3CCC[C@H]3c3cc(OCCCN4CCCCC4)ccc32)c1 (relative stereo) 7.66

###

Target: human H3 receptor (SK-N-MC cells) (Homo sapiens)
Construct: expressed in transfected cells; host or cells: SK-N-MC sublines with CRE-beta-galactosidase reporter
Sequence (Q9Y5N1 whole entry): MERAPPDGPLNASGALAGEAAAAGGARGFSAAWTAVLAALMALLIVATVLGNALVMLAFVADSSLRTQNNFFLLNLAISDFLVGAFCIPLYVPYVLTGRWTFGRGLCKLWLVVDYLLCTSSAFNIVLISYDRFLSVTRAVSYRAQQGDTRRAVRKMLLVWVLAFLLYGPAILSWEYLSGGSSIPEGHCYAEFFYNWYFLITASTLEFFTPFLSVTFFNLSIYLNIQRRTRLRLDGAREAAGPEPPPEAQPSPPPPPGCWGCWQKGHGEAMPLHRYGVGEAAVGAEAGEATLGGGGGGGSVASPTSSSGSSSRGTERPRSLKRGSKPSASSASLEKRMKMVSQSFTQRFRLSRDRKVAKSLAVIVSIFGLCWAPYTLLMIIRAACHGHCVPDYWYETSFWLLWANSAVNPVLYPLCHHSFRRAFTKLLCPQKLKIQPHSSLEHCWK
Test: Cyclic AMP accumulation (β-galactosidase reporter, Schild analysis vs histamine)
Assay type: cell-based
Settings: read-out: H3 pA2 (converted)
Property measured: Kb (nM)
Reply numerically in nM, unit not repeated.

Compound: FC(F)(F)Oc1ccc([C@H]2CN3CCC[C@H]3c3cc(OCCCN4CCCCC4)ccc32)cc1 (relative stereo)
Reported: 6.31

Compound: Clc1ccccc1[C@H]1CN2CCC[C@H]2c2cc(OCCCN3CCCCC3)ccc21 (relative stereo) [Example 12B]
Reported: 0.631

Now consider the entry below.
So what's the measured Kb for this one? N#Cc1ccc([C@@H]2CN3CCC[C@H]3c3cc(OCCCN4CCCCC4)ccc32)cc1 (relative stereo) [Example 41A] 0.794
